- assayed-system: Peroxisome proliferator-activated receptor alpha (Homo sapiens)
- Sequence (Q07869 whole entry): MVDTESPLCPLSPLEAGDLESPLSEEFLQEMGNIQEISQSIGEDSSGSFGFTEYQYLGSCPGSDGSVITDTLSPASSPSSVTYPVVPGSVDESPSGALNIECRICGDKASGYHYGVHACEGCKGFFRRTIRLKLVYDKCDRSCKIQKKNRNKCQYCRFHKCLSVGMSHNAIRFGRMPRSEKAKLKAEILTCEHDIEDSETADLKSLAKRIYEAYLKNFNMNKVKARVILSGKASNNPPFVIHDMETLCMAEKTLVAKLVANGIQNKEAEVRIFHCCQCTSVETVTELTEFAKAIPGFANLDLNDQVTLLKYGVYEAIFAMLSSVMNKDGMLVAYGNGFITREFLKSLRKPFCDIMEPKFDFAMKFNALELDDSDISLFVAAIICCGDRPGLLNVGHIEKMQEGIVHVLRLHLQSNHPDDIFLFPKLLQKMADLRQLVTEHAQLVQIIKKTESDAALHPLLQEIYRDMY
- assay-text: Displacement of [3H]GW 2433 from human PPARalpha by scintillation proximity assay
Some compounds, each annotated with its measured pIC50.
# log scale: pIC50 equals minus log10 of the concentration in mol/L

Recorded results for 3 compounds are shown here.
>>> recorded_measurement("CCCCN(c1cccc(-c2ccc(Cl)cc2)c1C)S(=O)(=O)c1ccc(OC(C)C(=O)O)c(OC)c1Cl (stereo not drawn)")
4.80
>>> recorded_measurement("CCCCN(c1cccc(-c2ccc(Cl)c(Cl)c2)c1C)S(=O)(=O)c1ccc(OC(C)C(=O)O)c(C)c1C (stereo not drawn)")
4.70
>>> recorded_measurement("CCCCN(c1cccc(-c2ccc(Cl)cc2)c1C)S(=O)(=O)c1ccc(OC(CC)C(=O)O)c(C)c1C (stereo not drawn)")
4.80

Return pIC50 measured with Peroxisome proliferator-activated receptor alpha (Homo sapiens) given this compound: CCCCN(c1cccc(-c2ccc(Cl)cc2)c1C)S(=O)(=O)c1ccc(OC(C)C(=O)O)c(C)c1C (stereo not drawn)
4.70

Check CCCCN(c1ccc(C)c(-c2ccc(Cl)cc2)c1)S(=O)(=O)c1ccc(OC(C)C(=O)O)c(C)c1C (stereo not drawn) too.
4.70

Check CCCCN(c1cccc(-c2ccc(Cl)cc2)c1C)S(=O)(=O)c1ccc(OC(CCC)C(=O)O)c(C)c1C (stereo not drawn) too.
5.00

Check CCCCN(c1cccc(-c2ccc(OC(F)(F)F)cc2)c1C)S(=O)(=O)c1ccc(OC(C)C(=O)O)c(C)c1C (stereo not drawn) too.
5.00

Check CCCCN(c1c(C)cc(C)c(-c2ccc(Cl)cc2)c1C)S(=O)(=O)c1ccc(OC(C)C(=O)O)c(C)c1C (stereo not drawn) too.
4.70
